# Test system: 299254-011-R-J1-PDC complex spheroid viability;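 further: spheroids exposed to drugs for one week before measurement; percent viability relative to DMSO vehicle control taken as 100%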
# PROTOCOL: Anticancer human tumor 299254-011-R-J1-PDC patient-derived melanoma cell line growth inhibition [POLQ]
# EXPERIMENTAL_PARAMETERS: second compound 1 µM; first compound 0.1 µM; active compounds read low
MEASURED_ATTRIBUTE: viability, T/C (%)
The figure you give is taken to be in %; do not add the unit.

Recorded results for 3 compounds are shown here.
CNCc1ccc(-c2[nH]c3cc(F)cc4c3c2CCNC4=O)cc1 + Nc1ccc(C#CCN(C(=O)Cc2ncc(C(F)(F)F)cc2C(F)(F)F)c2ccc(F)cc2)nn1 ... 111
COc1cccc2c1C(=O)c1c(O)c3c(c(O)c1C2=O)CC(O)(C(=O)CO)CC3OC1CC(N)C(O)C(C)O1 (centres undefined) + COC1C(OC(N)=O)C(O)C(Oc2ccc3c(O)c(NC(=O)c4ccc(O)c(CC=C(C)C)c4)c(=O)oc3c2C)OC1(C)C ... 87.5
CCc1cc2c(N3CCc4c(cc(Cn5ccnc5)cc4-c4cn(C)nc4C(F)(F)F)C3=O)cc(C)nc2c(OC)n1 + COC1C(OC(N)=O)C(O)C(Oc2ccc3c(O)c(NC(=O)c4ccc(O)c(CC=C(C)C)c4)c(=O)oc3c2C)OC1(C)C ... 110

Turning to the following compound.
What the record says about COc1cccc(OCCCN)c1-c1cc(Nc2cnc(C#N)cn2)n[nH]1 + COC1C(OC(N)=O)C(O)C(Oc2ccc3c(O)c(NC(=O)c4ccc(O)c(CC=C(C)C)c4)c(=O)oc3c2C)OC1(C)C : viability, T/C is 56.8
